Source listed as BindingDB's records for doi:10.1016/j.ejmech.2020.112522.

Assay: Inhibition of wild type EGFR in human A-431 cells assessed as cell growth inhibition measured after 72 hrs by Celltiter-Glo luminescent cell viability assay
pIC50: −log10 of the molar value.

SMILES_INPUT | pIC50
C=CCSSCCC(=O)OCCCOc1cc2ncnc(Nc3cccc(Br)c3)c2cc1OC | 5.17

----------
Assay: Inhibition of wild type EGFR in human HepG2 cells assessed as cell growth inhibition measured after 72 hrs by Celltiter-Glo luminescent cell viability assay
READOUT_NAME: IC50

SMILES_INPUT | TEST_VALUE
C=CCSSCCC(=O)OCCCOc1cc2ncnc(Nc3cccc(Br)c3)c2cc1OC | > 10 µM

----------
Test: Inhibition of wild type EGFR in human HT-29 cells assessed as cell growth inhibition measured after 72 hrs by Celltiter-Glo luminescent cell viability assay
pIC50: −log10 of the molar value.

SMILES_INPUT | pIC50
C=CCSSCCC(=O)OCCCOc1cc2ncnc(Nc3cccc(Br)c3)c2cc1OC | < 5.00

----------
Assay: Inhibition of wild type EGFR in human MCF7 cells assessed as cell growth inhibition measured after 72 hrs by Celltiter-Glo luminescent cell viability assay

SMILES_INPUT | IC50 [µM]
C=CCSSCCC(=O)OCCCOc1cc2ncnc(Nc3cccc(Br)c3)c2cc1OC | 7.31
